Cited source for all entries: ChEMBL document CHEMBL3885861

- Species on record: Rattus norvegicus
- measurement_description: Open TG-GATES - Regimen: Single
- Format: toxicity, organism-based, Sprague-Dawley
- Set-up: regimen Single, gender Male, age 6 weeks
- particulars: in vivo, po, 1000 mg/kg, 6 h, tissue Plasma, route gavage, dose level High
observation_type: TP

INSERT INTO measurements (compound, observation_type, reported_value) VALUES
  ('COC(=O)C1=C(C)NC(C)=C(C(=O)OC)C1c1ccccc1[N+](=O)[O-] [NIFEDIPINE]', 'TP', '5.4 g/dL'),
  ('CNC(=C[N+](=O)[O-])NCCSCc1ccc(CN(C)C)o1 [RANITIDINE]', 'TP', '5.4 g/dL'),
  ('Cc1nnc2n1-c1ccc(Cl)cc1C(c1ccccc1Cl)=NC2 [TRIAZOLAM]', 'TP', '5.3 g/dL'),
  ('O=C(OC[C@H]1O[C@@H](OC(=O)c2cc(O)c(O)c(OC(=O)c3cc(O)c(O)c(O)c3)c2)[C@H](OC(=O)c2cc(O)c(O)c(OC(=O)c3cc(O)c(O)c(O)c3)c2)[C@@H](OC(=O)c2cc(O)c(O)c(OC(=O)c3cc(O)c(O)c(O)c3)c2)[C@@H]1OC(=O)c1cc(O)c(O)c(OC(=O)c2cc(O)c(O)c(O)c2)c1)c1cc(O)c(O)c(OC(=O)c2cc(O)c(O)c(O)c2)c1 [TANNIC ACID]', 'TP', '5.3 g/dL');

Kindly review the next compound as well.
If you can, please state the reported TP value of CN/C(=N/CCSCc1nc[nH]c1C)NC#N [CIMETIDINE] . 5.6 g/dL
